Kindly state IC50 for each of the entries shown.
- TEST SYSTEM: CIB1 and αIIb interaction (CIB1-GST : F-αIIb peptide) (Homo sapiens, UniProt Q99828)
- Construct: made in house; host or cells: BL-21 plus RIL cells (E. coli)
- Sequence (Q99828 1-191): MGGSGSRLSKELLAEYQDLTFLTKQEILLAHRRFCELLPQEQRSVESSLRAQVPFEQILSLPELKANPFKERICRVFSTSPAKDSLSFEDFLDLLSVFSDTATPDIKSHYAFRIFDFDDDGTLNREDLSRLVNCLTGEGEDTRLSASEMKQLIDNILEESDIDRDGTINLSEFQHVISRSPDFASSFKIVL
- EXPERIMENTAL DETAILS: FP assay, 1536-well qHTS format (primary and confirmatory screen)
- Format: binding
- MEASUREMENT SETUP: IC50 [μM], qHTS FP screen hits, Table S2
Answers are plain numbers, in µM.

INSERT INTO results (compound, observable, measured_result) VALUES
  ('O=C1C(I)=CC(=C(c2cc(I)c([O-])c(I)c2)c2ccccc2C(=O)[O-])C=C1I.[Na+].[Na+]', 'IC50', 17.8);

IN: Which IC50 is listed for Cc1cc(C(C#N)c2ccc(Cl)cc2)c(Cl)cc1NC(=O)c1cc(I)cc(I)c1O (centres unmarked) ?
OUT: 27

====

- TEST SYSTEM: GST-CIB1 : F-scrambled peptide (Homo sapiens)
- Construct: made in house; host or cells: BL-21 plus RIL cells (E. coli)
- Sequence (Q99828 1-191): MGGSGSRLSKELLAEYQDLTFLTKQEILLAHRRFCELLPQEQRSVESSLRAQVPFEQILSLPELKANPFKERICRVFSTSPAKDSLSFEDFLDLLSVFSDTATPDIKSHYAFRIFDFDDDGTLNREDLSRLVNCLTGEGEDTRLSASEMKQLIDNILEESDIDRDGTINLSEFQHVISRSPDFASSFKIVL
- EXPERIMENTAL DETAILS: FP scrambled-peptide counter screen, 384-well format
- Assay type: binding
- MEASUREMENT SETUP: F-scrambled peptide; read-out: 384-well COUNTERSCREEN IC50
OBSERVABLE: IC50

Here are 5 molecules. What values of IC50 were reported for them?
1. NS(=O)(=O)c1cccc2c1c([N+](=O)[O-])cc1nc(O)c([O-])nc12.[Na+]
2. CCCCCCCCOc1ccccc1C(=O)Nc1ccc(C(=O)OCC[N+](C)(CC)CC)cc1.[Br-]
3. CCOC(=O)c1c(NC(=O)C2CC(Cl)=CCC2C(=O)O)sc2c1CCCCC2.O=C(O)C(F)(F)F (stereo not shown)
4. CCOC(=O)c1nnc(NS(=O)(=O)c2ccc(NC(=O)Cc3ccc(Cl)c(Cl)c3)cc2)s1.O=C(O)C(F)(F)F
5. CC[S+]([O-])c1nc(-c2cccc(OCc3ccccc3)c2)cc(C(F)(F)F)n1 (stereo not shown)

OUT:
7.4 µM
> 120 µM
> 120 µM
> 120 µM
> 120 µM

Look at each molecule and report its IC50.
1. O=C(CN(c1cccc(Br)c1)S(=O)(=O)c1ccccc1)NN=CC1=CC(=[N+]([O-])O)C=CC1=O.O=C(O)C(F)(F)F
2. Cc1ccc(-c2cc(-c3nn(-c4nc(C(=O)O)cs4)c(CC4CC4)c3Cc3ccc(S(N)(=O)=O)c(F)c3)ccc2F)o1

OUT:
["15.8 µM", "39.8 µM"]

====

I'd be grateful if you could share measured Efficacy (%) for these entries.
- TEST SYSTEM: CIB1 and αIIb interaction (CIB1-GST : F-αIIb peptide) (Homo sapiens)
- Construct: made in house; host or cells: BL-21 plus RIL cells (E. coli)
- EXPERIMENTAL DETAILS: FP assay, 1536-well qHTS format (primary and confirmatory screen)
- Assay type: binding
- MEASUREMENT SETUP: qHTS FP screen hits, Table S2; negative = inhibition
Answers are plain numbers, in %.

// worked examples, Efficacy (%) included
INSERT INTO assay_data (molecule, observable, unit_string, measured_result) VALUES
  ('COc1ccc2c(c[n+](C)c3c4cc5c(cc4ccc23)OCO5)c1OC', 'Efficacy (%)', '%', -30),
  ('Oc1ccc(Cl)cc1Cc1cc(Cl)ccc1O', 'Efficacy (%)', '%', -86),
  ('Cc1ccc(C)n1-c1cccc(C(=O)O)c1.O=C(O)C(F)(F)F', 'Efficacy (%)', '%', -32),
  ('CC[S+]([O-])c1nc(-c2cccc(OCc3ccccc3)c2)cc(C(F)(F)F)n1 (stereo not drawn)', 'Efficacy (%)', '%', -39),
  ('COC(=O)c1ccc(O)c2ncc(-c3ccc(C(=O)NCCCN(C)C)cc3)cc12.O=C(O)C(F)(F)F', 'Efficacy (%)', '%', -71),
  ('O=C(c1ccccc1)c1c(O)cc(O)cc1O[C@@H]1O[C@H](CO)[C@@H](O)[C@H](O)[C@H]1O', 'Efficacy (%)', '%', -29),
  ('CC[C@@H](CO)NC(=O)[C@@H]1C=C2c3cccc4[nH]cc(c34)C[C@H]2N(C)C1.O=C(O)/C=C\C(=O)O', 'Efficacy (%)', '%', -131),
  ('COC(=O)C12C(=O)C(C)(O)C(=O)C1(C)C(C)=CC1C34CCC(OC3=O)C(C)(CO)C4CCC12C (stereo not drawn)', 'Efficacy (%)', '%', -32),
  ('O=C1C(I)=CC(=C(c2cc(I)c([O-])c(I)c2)c2ccccc2C(=O)[O-])C=C1I.[Na+].[Na+]', 'Efficacy (%)', '%', -47),
  ('O=C(O)c1ccc(-n2cccc2/C=C2\SC(=O)N(Cc3cccc(Cl)c3)C2=O)cc1', 'Efficacy (%)', '%', -66);

I would be grateful if you could provide Efficacy (%) for each of the following entries.
1. CCOC(=O)c1cc(-c2ccco2)nc2c1c(C)nn2CCC#N.O=C(O)C(F)(F)F
2. CCN1CCN(c2ccc(Nc3ccc(-c4ccc(C(N)=O)cc4)n4ncnc34)cc2)CC1.O=C(O)C(F)(F)F
3. CC(=O)c1c(O)cc2cccc3c2c1CC(C)(O)O3 (stereo not drawn)
4. COc1cccc(CN(C)c2ccc(S(=O)(=O)Nc3nccs3)cc2)c1O.O=C(O)C(F)(F)F
5. Cc1c(Cc2ccc3ccccc3n2)c2cc(F)ccc2n1CC(=O)O

OUT:
[-27, -39, -51, -24, -116]

====

- TEST SYSTEM: CIB1 and αIIb interaction (CIB1-GST : F-αIIb peptide) (Homo sapiens)
- Construct: made in house; host or cells: BL-21 plus RIL cells (E. coli)
- EXPERIMENTAL DETAILS: FP assay, 1536-well qHTS format (primary and confirmatory screen)
- Assay type: binding
- MEASUREMENT SETUP: qHTS primary screen hits, Table S2; read-out: IC50
OBSERVABLE: IC50 (µM)
Give bare numbers, in µM.

INSERT INTO measurements (molecule, unit_string, measured_result) VALUES
  ('CC(C)N1CCc2c(sc(NC(=O)Cc3ccccc3)c2-c2nc3ccccc3s2)C1.O=C(O)C(F)(F)F', 'µM', 28.2);

Each of the following entries comes with a recorded value; kindly state IC50 for each.
1. CCCCC1(C2CCCC2)Cc2cc(OCC(=O)O)c(Cl)c(Cl)c2C1=O (stereo in doubt)
2. CC(=O)NC(c1ccco1)c1cc(Cl)c2ccc(N(C)C)nc2c1O (stereo not shown)
3. O=C(N/N=C/c1ccc([N+](=O)[O-])o1)c1ccc(O)cc1
4. Cc1ccc(S(=O)(=O)Nc2nn3c(=O)c4ccccc4nc3s2)cc1C.O=C(O)C(F)(F)F
5. O=C(CCCN1CCC(n2c(=O)[nH]c3ccccc32)CC1)c1ccc(F)cc1

OUT:
[44.7, 50.1, 44.7, 14.1, 50.1]

For each of the items listed, what is its IC50?
1. CC(=O)Nc1sc2c(c1-c1nc3ccccc3s1)CCN(C1COC1)C2.O=C(O)C(F)(F)F
2. COC1=C(OC)C(=O)C(CCCCCCCCCCO)=C(C)C1=O

OUT:
14.1
50.1

Required: IC50, one value per molecule below.
1. Cc1ccc(C)n1-c1ccccc1C(=O)O.O=C(O)C(F)(F)F
2. O=c1oc2ccccc2c(O)c1C(CC(O)c1ccc(-c2ccc(Br)cc2)cc1)c1ccccc1 (stereo not shown)
3. Cc1ccc(S(=O)(=O)Nc2cnccc2C(=O)Nc2nc(-c3cccc(Cl)c3)cs2)cc1.O=C(O)C(F)(F)F
4. COc1ccc(/C=C/C(=O)Nc2ccccc2C(=O)O)cc1OC
5. Cc1ccc(NS(=O)(=O)c2cc(Br)cc3c2NC(=O)CC3)cc1Cl.O=C(O)C(F)(F)F
6. c1ccc(C2Nc3cccc4cccc(c34)N2)cc1

OUT:
[50.1, 79.4, 12.6, 39.8, 50.1, 50.1]

# per-item lookup of IC50; items listed below
1. Nc1ccc(CNc2ccc(S(=O)(=O)Nc3nccs3)cc2)c(O)c1.O=C(O)C(F)(F)F
2. CN1CCN(c2ccc(Nc3c4ccccc4nc4ccccc34)cc2)CC1.O=C(O)C(F)(F)F

OUT:
39.8
56.2
